ASSAY_READOUT: light transmittance value

CCCCCCCCCCCCCCCC(=O)OC(C)C [isopropyl palmitate]	about 101%
CCCCCCCCCCCCCC(=O)OC(C)C [isopropyl myristate]	about 101%
CCCCCCCCCCCCCCCCCC(=O)OCCCC [butyl stearate]	about 100%
CCCCCCCCCCCCCC(C)C [isohexadecane]	about 100%
